Tested on: Homo sapiens
Assay: Pharmacokinetic parameters for different drugs, or their active metabolite following multiple oral or intravenous administration to subjects of varying health conditions.
Format: ADME, organism-based
Set-up: dose 30 mg, dose 135 mg, route oral
Details: in vivo, dose 135 mg, dosed compound id 621, dosed compound name AZATHIOPRINE, regimen Once daily, route oral, tissue Plasma
Measured Endpoint: Tmax

API: value(readout= Tmax, system= Homo sapiens, query= Sc1ncnc2nc[nH]c12 [MERCAPTOPURINE ANHYDROUS] )
1 to 2 h

###

System: Homo sapiens
Experiment: Pharmacokinetic parameters for different drugs, or their active metabolite following multiple oral or intravenous administration to subjects of varying health conditions.
Format: ADME, organism-based
Design: dose 30 mg, dose 135 mg, route oral
Details: in vivo, dosed compound id 621, dosed compound name AZATHIOPRINE, regimen Once daily, tissue Plasma
Measured Endpoint: Cmax

Can you share its Cmax? I mean this compound: Sc1ncnc2nc[nH]c12 [MERCAPTOPURINE ANHYDROUS]
20 to 90 ng/mL
